- Species: Rattus norvegicus
- Experiment summary: DrugMatrix - Regimen: Daily Repeat
- Type: toxicity, organism-based, Sprague-Dawley
- Parameters: regimen Daily Repeat, gender Male, age 6-8 weeks
- Run conditions: in vivo, iv, 0 mg/kg, 72 h, tissue Blood, dose level Control, time 3 day, vehicle 100 % SALINE
Starred links: 1 amine or outer side, 2 acyl side, 3 side chain; linkers in the order of their positions; H or OH if unused. Positions of bridges follow the written chain, without caps; N, C: chain ends. Non-standard residues stand in square brackets, D forms with d. Residues, ends and D or L forms follow the SMILES beside them. Chains are numbered I, II in the order given. Actinocin(9to1) = Cc1c2oc3c(C)ccc(C(=O)[*:1])c3nc-2c(C(=O)[*:2])c(N)c1=O; NMeV = CN[C@H](C(=O)O)C(C)C; Sar = CNCC(=O)O
Assay endpoint: HEMATOCRIT (%)
Numeric only. Scale: %

COc1cc2c3cc1Oc1cc(ccc1O)C[C@@H]1c4c(cc(OC)c(O)c4Oc4ccc(cc4)C[C@@H]3N(C)CC2)CC[N+]1(C)C.[Cl-] :: 34.05

Tell me the measured HEMATOCRIT of Cc1ccc(N(CC2=NCCN2)c2cccc(O)c2)cc1 , please. 36.33

Tell me the measured HEMATOCRIT of CC[C@]1(O)C[C@H]2CN(CCc3c([nH]c4ccccc34)[C@@](C(=O)OC)(c3cc4c(cc3OC)N(C=O)[C@H]3[C@@](O)(C(=O)OC)[C@H](OC(C)=O)[C@]5(CC)C=CCN6CC[C@]43[C@@H]65)C2)C1 , please. 33.67

Tell me the measured HEMATOCRIT of Cc1c2oc3c(C)ccc(C(=O)N[C@@H]4C(=O)N[C@H](C(C)C)C(=O)N5CCC[C@H]5C(=O)N(C)CC(=O)N(C)[C@@H](C(C)C)C(=O)O[C@@H]4C)c3nc-2c(C(=O)N[C@@H]2C(=O)N[C@H](C(C)C)C(=O)N3CCC[C@H]3C(=O)N(C)CC(=O)N(C)[C@@H](C(C)C)C(=O)O[C@@H]2C)c(N)c1=O [DACTINOMYCIN] (I: T[dV]P[Sar][NMeV] / II: T[dV]P[Sar][NMeV]; ester I:1-I:C, II:1-II:C; linker I:N-II:N via Actinocin(9to1)) , please. 32.63

====

This listing pairs compounds with measured EOSINOPHIL.
- Species: Rattus norvegicus
- Experiment summary: DrugMatrix - Regimen: Daily Repeat
- Assay type: toxicity, organism-based, Sprague-Dawley
- Parameters: regimen Daily Repeat, gender Male, age 6-8 weeks
- Run conditions: in vivo, iv, 0 mg/kg, 72 h, tissue Blood, dose level Control, time 3 day, vehicle 100 % SALINE
Starred links: 1 amine or outer side, 2 acyl side, 3 side chain; linkers in the order of their positions; H or OH if unused. Positions of bridges follow the written chain, without caps; N, C: chain ends. Non-standard residues stand in square brackets, D forms with d. Residues, ends and D or L forms follow the SMILES beside them. Chains are numbered I, II in the order given. Actinocin(9to1) = Cc1c2oc3c(C)ccc(C(=O)[*:1])c3nc-2c(C(=O)[*:2])c(N)c1=O; NMeV = CN[C@H](C(=O)O)C(C)C; Sar = CNCC(=O)O
Numeric only. Scale: %

These solved cases illustrate the format of a correct answer.
Cc1ccc(N(CC2=NCCN2)c2cccc(O)c2)cc1 [PHENTOLAMINE] :: 0.33
Cc1c2oc3c(C)ccc(C(=O)N[C@@H]4C(=O)N[C@H](C(C)C)C(=O)N5CCC[C@H]5C(=O)N(C)CC(=O)N(C)[C@@H](C(C)C)C(=O)O[C@@H]4C)c3nc-2c(C(=O)N[C@@H]2C(=O)N[C@H](C(C)C)C(=O)N3CCC[C@H]3C(=O)N(C)CC(=O)N(C)[C@@H](C(C)C)C(=O)O[C@@H]2C)c(N)c1=O [DACTINOMYCIN] (I: T[dV]P[Sar][NMeV] / II: T[dV]P[Sar][NMeV]; ester I:1-I:C, II:1-II:C; linker I:N-II:N via Actinocin(9to1)) :: 0.33
CC[C@]1(O)C[C@H]2CN(CCc3c([nH]c4ccccc34)[C@@](C(=O)OC)(c3cc4c(cc3OC)N(C=O)[C@H]3[C@@](O)(C(=O)OC)[C@H](OC(C)=O)[C@]5(CC)C=CCN6CC[C@]43[C@@H]65)C2)C1 [VINCRISTINE] :: 0

Tell me the measured EOSINOPHIL of COc1cc2c3cc1Oc1cc(ccc1O)C[C@@H]1c4c(cc(OC)c(O)c4Oc4ccc(cc4)C[C@@H]3N(C)CC2)CC[N+]1(C)C.[Cl-] , please. 0
